Assay: in vitro
Settings: mouse, BaF3 cells
Description: Cytotoxicity against mouse BaF3 assessed as inhibition of cell growth incubated for 3 days by CCK-8 assay
Recorded measurements of IC50 at 3 days, one per entry

[
  {
    "COMPOUND": "Cc1ccc(-n2nc(C(C)(C)C)cc2NC(=O)Nc2ccc(Nc3ncnc4c3OC(C)(C)C(=O)N4)c(C)c2)cc1",
    "IC50 at 3 days": "2.99 µM"
  },
  {
    "COMPOUND": "Cc1cc(NC(=O)Nc2cc(C(C)(C)C)nn2-c2ccc(C(F)(F)F)cc2)ccc1Nc1ncnc2c1OC(C)(C)C(=O)N2",
    "IC50 at 3 days": "> 10 µM"
  },
  {
    "COMPOUND": "Cc1cc(NC(=O)Nc2cc(C(C)(C)C)nn2-c2ccc(Cl)cc2)ccc1Nc1ncnc2c1OC(C)(C)C(=O)N2",
    "IC50 at 3 days": "9.53 µM"
  },
  {
    "COMPOUND": "Cc1cc(NC(=O)Nc2cc(C(C)(C)C)nn2-c2ccccc2)ccc1Nc1ncnc2c1OC(C)(C)C(=O)N2",
    "IC50 at 3 days": "> 10 µM"
  },
  {
    "COMPOUND": "O=C(Nc1cnn2ccc(N3CCC[C@@H]3c3cc(F)ccc3F)nc12)N1CC[C@H](O)C1 [LAROTRECTINIB]",
    "IC50 at 3 days": "3.57 µM"
  },
  {
    "COMPOUND": "Cc1cc(NC(=O)Nc2cc(C(C)(C)C)nn2-c2ccc(F)c(F)c2)ccc1Nc1ncnc2c1OC(C)(C)C(=O)N2",
    "IC50 at 3 days": "> 10 µM"
  },
  {
    "COMPOUND": "C[C@@H]1CCc2ncc(F)cc2[C@H]2CCCN2c2ccn3ncc(c3n2)C(=O)N1 [SELITRECTINIB]",
    "IC50 at 3 days": "> 10 µM"
  }
]
